ASSAYED_TARGET: hSCN3A sodium channels (Homo sapiens)
Construct: expressed in transfected cells
EXPERIMENT: hSCN3A electrophysiology, whole-cell patch-clamp or PatchXpress 7000, estimated IC-50 (Table B)
Assay type: cell-based
CONDITION_INFO: estimated IC-50; hSCN3A cells, whole-cell patch-clamp or PatchXpress 7000; read-out: SCN3A EIC-50
VALUE_TYPE: IC50 (µM)
Supply the numeric figure in µM, leaving out any unit text.

>>> measured_result("Cc1cnc(NS(=O)(=O)c2ccc(C(=O)NCc3ccc(C(F)(F)F)cc3)cc2)s1")
0.95
>>> measured_result("O=C(NCc1ccc(OC(F)(F)F)c(F)c1)c1ccc(S(=O)(=O)Nc2nccs2)c(F)c1")
0.06
>>> measured_result("O=C(NCc1ccc(C(F)(F)F)c(Cl)c1)c1ccc(S(=O)(=O)Nc2ncns2)cc1Cl")
0.23
>>> measured_result("O=C(c1ccc(S(=O)(=O)Nc2nccs2)cc1)N1CCO[C@@H]2Cc3ccccc3[C@@H]21")
2.86
>>> measured_result("O=C(NCc1cc(C(F)(F)F)ccc1Cl)c1ccc(S(=O)(=O)Nc2nccs2)cc1")
0.5
>>> measured_result("Cc1cc(Cl)ccc1CNC(=O)c1ccc(S(=O)(=O)Nc2nccs2)cc1")
0.24
>>> measured_result("O=C(NCc1ccccc1OC(F)(F)F)c1ccc(S(=O)(=O)Nc2nccs2)cc1")
1.63
>>> measured_result("O=C(NCc1ccc(C(F)(F)F)cc1)c1ccc(S(=O)(=O)Nc2ncc(Cl)s2)cc1")
0.07

Read the next record carefully.
IN: Name the reported IC50 value associated with the compound N#Cc1cc(S(=O)(=O)Nc2ncc(Cl)s2)ccc1C(=O)NCc1ccc(C(F)(F)F)cc1
OUT: 1.62

###

The following compounds are shown together with reported IC50 values.
ASSAYED_TARGET: hSCN3A sodium channels (Homo sapiens, UniProt Q9NY46)
Construct: expressed in transfected cells
Sequence (Q9NY46 whole entry): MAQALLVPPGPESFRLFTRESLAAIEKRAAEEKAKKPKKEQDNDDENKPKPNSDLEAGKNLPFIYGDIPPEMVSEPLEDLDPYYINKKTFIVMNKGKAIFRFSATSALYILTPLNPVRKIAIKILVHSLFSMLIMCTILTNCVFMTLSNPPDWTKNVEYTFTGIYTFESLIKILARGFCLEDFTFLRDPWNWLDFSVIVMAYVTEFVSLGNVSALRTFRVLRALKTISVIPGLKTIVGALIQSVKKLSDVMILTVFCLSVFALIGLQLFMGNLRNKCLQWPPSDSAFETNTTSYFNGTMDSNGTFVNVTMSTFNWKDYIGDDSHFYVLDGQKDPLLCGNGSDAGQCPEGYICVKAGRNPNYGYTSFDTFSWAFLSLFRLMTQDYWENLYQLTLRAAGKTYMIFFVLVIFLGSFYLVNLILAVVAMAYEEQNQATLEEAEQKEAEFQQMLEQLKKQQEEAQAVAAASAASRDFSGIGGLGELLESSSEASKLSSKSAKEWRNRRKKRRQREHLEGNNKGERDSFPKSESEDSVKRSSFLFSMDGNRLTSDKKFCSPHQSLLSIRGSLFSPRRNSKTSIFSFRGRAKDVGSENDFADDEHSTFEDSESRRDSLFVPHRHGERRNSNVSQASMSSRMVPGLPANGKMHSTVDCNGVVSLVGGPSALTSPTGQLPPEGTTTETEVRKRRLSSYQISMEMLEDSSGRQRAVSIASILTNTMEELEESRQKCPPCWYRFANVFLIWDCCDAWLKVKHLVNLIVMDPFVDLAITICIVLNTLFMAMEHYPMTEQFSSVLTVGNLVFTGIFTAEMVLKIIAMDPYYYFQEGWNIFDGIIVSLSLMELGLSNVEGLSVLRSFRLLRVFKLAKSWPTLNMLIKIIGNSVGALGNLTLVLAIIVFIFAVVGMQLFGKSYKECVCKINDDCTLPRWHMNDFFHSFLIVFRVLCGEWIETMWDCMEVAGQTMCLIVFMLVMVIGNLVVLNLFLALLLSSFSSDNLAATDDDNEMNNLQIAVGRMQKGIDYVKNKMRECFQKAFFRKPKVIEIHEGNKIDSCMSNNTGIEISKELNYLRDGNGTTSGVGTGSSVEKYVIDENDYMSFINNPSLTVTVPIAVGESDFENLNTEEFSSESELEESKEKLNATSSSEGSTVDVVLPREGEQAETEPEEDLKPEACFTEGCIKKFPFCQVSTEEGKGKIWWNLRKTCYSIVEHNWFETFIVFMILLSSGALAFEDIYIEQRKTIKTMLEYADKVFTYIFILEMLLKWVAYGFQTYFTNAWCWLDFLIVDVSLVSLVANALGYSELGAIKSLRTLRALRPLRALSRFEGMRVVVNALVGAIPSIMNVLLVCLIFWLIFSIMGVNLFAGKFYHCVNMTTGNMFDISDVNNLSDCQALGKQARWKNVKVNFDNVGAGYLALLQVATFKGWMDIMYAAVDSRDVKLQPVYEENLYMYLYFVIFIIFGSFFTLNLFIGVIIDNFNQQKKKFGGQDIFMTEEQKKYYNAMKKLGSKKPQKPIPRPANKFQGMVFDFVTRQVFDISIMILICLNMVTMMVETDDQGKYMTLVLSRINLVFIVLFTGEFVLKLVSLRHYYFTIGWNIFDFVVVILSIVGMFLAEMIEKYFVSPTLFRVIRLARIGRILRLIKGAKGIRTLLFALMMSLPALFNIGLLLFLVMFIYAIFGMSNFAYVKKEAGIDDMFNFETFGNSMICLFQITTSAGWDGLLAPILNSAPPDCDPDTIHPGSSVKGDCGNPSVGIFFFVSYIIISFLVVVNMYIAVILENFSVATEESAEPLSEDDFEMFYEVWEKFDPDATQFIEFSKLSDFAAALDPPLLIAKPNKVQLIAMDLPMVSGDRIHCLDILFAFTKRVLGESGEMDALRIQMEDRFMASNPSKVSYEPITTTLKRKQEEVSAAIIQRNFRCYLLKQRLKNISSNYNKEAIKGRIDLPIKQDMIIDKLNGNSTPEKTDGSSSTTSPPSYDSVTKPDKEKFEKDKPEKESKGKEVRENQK
EXPERIMENT: hSCN3A electrophysiology, whole-cell patch-clamp or PatchXpress 7000, estimated IC-50 (Table B)
Type: cell-based
CONDITION_INFO: estimated IC-50; hSCN3A cells, whole-cell patch-clamp or PatchXpress 7000; read-out: SCN3A EIC-50
Returns: string containing the numeric result and its unit.

>>> measured_result("O=C(NCc1ccc(C(F)(F)F)cc1)c1ccc(S(=O)(=O)Nc2ncc(Cl)s2)c(F)c1")
"110 nM"
>>> measured_result("COc1ccccc1CNC(=O)c1ccc(S(=O)(=O)Nc2nccs2)cc1")
"3970 nM"
>>> measured_result("O=C(NCc1ccc(OC(F)(F)F)c(F)c1)c1ccc(S(=O)(=O)Nc2ncc(Cl)s2)cc1F")
"170 nM"

Read the next record carefully.
IN: Name the reported IC50 value associated with the compound O=C(NCc1ccc(Cl)c(F)c1)c1ccc(S(=O)(=O)Nc2nccs2)cc1F
OUT: 340 nM

###

The following molecules are shown together with reported inhibition at 10 µM values.
ASSAYED_TARGET: hSCN3A sodium channels (Homo sapiens)
Construct: expressed in transfected cells
EXPERIMENT: hSCN3A electrophysiology, Ionworks Quattro automated platform (Table C)
Format: cell-based
CONDITION_INFO: 10 μM compound, read-out: SCN3A % INHIB HTS IWQ 10 μM
Supply the numeric figure in %, leaving out any unit text.

IN: Name the reported inhibition at 10 µM value associated with the molecule COc1cccc(C2CCCN2C(=O)c2ccc(S(=O)(=O)Nc3nccs3)cc2)c1 (centres unmarked)
OUT: 2.72

IN: Name the reported inhibition at 10 µM value associated with the molecule O=C(c1ccc(S(=O)(=O)Nc2nccs2)cc1)N1CCCC(OCc2ccccc2)C1 (centres unmarked)
OUT: 10.1

IN: Name the reported inhibition at 10 µM value associated with the molecule Cc1ccnc(NC(=O)c2ccc(S(=O)(=O)Nc3nccs3)cc2)c1
OUT: 11.2
